B1: tRNA (parent)
chain: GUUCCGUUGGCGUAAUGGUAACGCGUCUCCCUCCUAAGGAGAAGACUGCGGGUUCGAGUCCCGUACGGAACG

# Variants of: B1
# Protocol summary: yeast fitness relative to wild type (ratio to wild type); higher = fitter; tRNA-Arg(CCU), competitive growth, 37 C, YPD
Fewer inactive variants are shown than the library holds.
Everything with yeast fitness lower than 0.6 is false; everything else, including exactly 0.6, is true.

# count of solved cases: 5
*Q* Record C30A G56A C60G ; criterion: yeast fitness no lower than 0.6. Met?
*A* false

*Q* Record C5A G9C A36U U54A C55U ; criterion: yeast fitness no lower than 0.6. Met?
*A* false

*Q* Record A14G A42G G51C ; criterion: yeast fitness no lower than 0.6. Met?
*A* false

*Q* Record G12A C31U C61U A70G ; criterion: yeast fitness no lower than 0.6. Met?
*A* false

*Q* Record U3C A36U G39A G52A ; criterion: yeast fitness no lower than 0.6. Met?
*A* false

***
*Q* Record U3G U16G A21G C29A U32C C33U C34A ; criterion: yeast fitness no lower than 0.6. Met?
*A* true

*Q* Record U19C C29G U54A A65C ; criterion: yeast fitness no lower than 0.6. Met?
*A* false
